Data origin: patent US20170037028A1

system: GLUT1 (Homo sapiens, UniProt P11166)
assay.method.text: Indirect measurement of GLUT1 activity by quantification of intracellular ATP levels (glucose induced ATP increase)
Type: cell-based
Set-up: endogenous in cells; host or cells: DLD1 or CHO-K1
recorded.conditions: read-out: IC50 regarding glucose induced ATP increase (GLUT1 inhibition)
outcome.measure: pIC50
One number for each entry, as −log10 of the molar value.

Past entries and their recorded results:
>  <compound>
COc1cc(C(=O)Nc2c(C)nn(CC3CNC(=O)O3)c2C)c2ccccc2n1 (centres unmarked) [Example 1525]

>  <pIC50>
5.32

$$$$
>  <compound>
Cc1c(NC(=O)c2cc(C(N)=O)nc3ccc(S(C)(=O)=O)cc23)c(C(F)(F)F)nn1Cc1ccc(C#N)cc1 [Example 1389]

>  <pIC50>
5.71

$$$$
>  <compound>
Cc1c(NC(=O)c2cc(C(N)=O)nc3cc(F)c(Cl)cc23)c(C(F)(F)F)nn1Cc1c(F)cc(C#N)cc1F [Example 398]

>  <pIC50>
8.26

$$$$
>  <compound>
CCS(=O)(=O)N1CCC(Cn2nc(C)c(NC(=O)c3cc(C(N)=O)nc4cc(F)c(Cl)cc34)c2C)CC1 [Example 415]

>  <pIC50>
8.00

$$$$

Here's the next entry for you.
Q. Suppose we examine the compound Cc1ccc(Cn2nc(C)c(NC(=O)c3cc(C(F)(F)F)nc4ccc(Br)cc34)c2C)cc1 [Example 54] ; what pIC50 value has been reported?
A. 7.23

----------
Please respond with reported log10(IC50) for every item in the list.
system: GLUT1 (Homo sapiens, UniProt P11166)
assay.method.text: Indirect measurement of GLUT1 activity by quantification of intracellular ATP levels (glucose induced ATP increase)
Type: cell-based
Parameters: endogenous in cells; host or cells: DLD1 or CHO-K1
recorded.conditions: read-out: IC50 regarding glucose induced ATP increase (GLUT1 inhibition)
Scale: log10; quantity: IC50; unit before log: nM

>  <compound>
Cc1c(NC(=O)c2cc(C(N)=O)nc3cc(F)ccc23)c(C(F)(F)F)nn1Cc1ccc(C2CCC2)cc1 [Example 1616]

>  <log10(IC50)>
1.83

$$$$
>  <compound>
Cc1c(NC(=O)c2cc(C(N)=O)nc3cc(F)ccc23)c(C(F)(F)F)nn1Cc1ccc(C(C)C)cc1 [Example 1406]

>  <log10(IC50)>
2.08

$$$$
>  <compound>
COc1cc(C(=O)Nc2c(C(F)(F)F)nn(Cc3ccc(S(C)(=O)=O)cc3)c2C)c2ccccc2n1 [Example 1431]

>  <log10(IC50)>
2.14

$$$$

Please state log10(IC50) for every compound in the list that follows.
1. Cc1nn(Cc2ccc(C(=O)NCC3(C)COC3)cn2)c(C)c1NC(=O)c1cc(C(F)(F)F)nc2ccc(Br)cc12 [Example 1159]
2. Cc1c(NC(=O)c2cc(C(N)=O)nc3cccc(F)c23)c(C(F)(F)F)nn1Cc1ccc(C(F)(F)F)cc1 [Example 1591]
3. Cc1nn(Cc2ccc(C#N)cc2)c(C)c1NC(=O)c1cc(C(N)=O)nc2ccccc12 [Example 259]

A.
1: 2.20; 2: 1.22; 3: 0.99

----------
Please respond with reported pIC50 for every item in the list.
system: UniProt P11166
assay.method.text: Indirect measurement of GLUT1 activity by quantification of intracellular ATP levels (glucose induced ATP increase)
Format: cell-based
Set-up: endogenous in cells; host or cells: DLD1 or CHO-K1
recorded.conditions: read-out: IC50 regarding glucose induced ATP increase (GLUT1 inhibition)
Answers are plain numbers, as −log10 of the molar value.

Past entries and their recorded results:
>  <structure.smiles.string>
Cc1nn(Cc2ncccc2C#N)c(C)c1NC(=O)c1cc(C(N)=O)nc2cc(F)c(F)cc12

>  <pIC50>
8.15

$$$$
>  <structure.smiles.string>
CC(=O)c1cccc(Cn2nc(C(F)(F)F)c(NC(=O)c3cc(C(N)=O)nc4cccc(F)c34)c2C)c1

>  <pIC50>
7.02

$$$$

Q. Suppose we examine the compound CC(C)c1nn(Cc2ccc(C#N)cc2)c(C(F)(F)F)c1NC(=O)c1cc(C(N)=O)nc2cc(F)ccc12 ; what pIC50 value has been reported?
A. 8.10

----------
Please respond with reported IC50 for every item in the list.
system: UniProt P11166
assay.method.text: Indirect measurement of GLUT1 activity by quantification of intracellular ATP levels (glucose induced ATP increase)
Assay type: cell-based
Design: endogenous in cells; host or cells: DLD1 or CHO-K1
recorded.conditions: read-out: IC50 regarding glucose induced ATP increase (GLUT1 inhibition)
Give bare numbers, in nM.

>  <molecule>
CC(=O)N1CCC(Cn2nc(C)c(NC(=O)c3cc(C(N)=O)nc4ccccc34)c2C)CC1

>  <result.units>
nM

>  <IC50>
614

$$$$
>  <molecule>
Cc1nn(Cc2ccc(C(=O)NCCCO)cn2)c(C)c1NC(=O)c1cc(C(F)(F)F)nc2ccc(Br)cc12

>  <result.units>
nM

>  <IC50>
86.7

$$$$
>  <molecule>
Cc1nn(Cc2ccccc2OC(F)(F)F)c(C)c1NC(=O)c1cc(C(F)(F)F)nc2ccc(Br)cc12

>  <result.units>
nM

>  <IC50>
250

$$$$

Please state IC50 for every molecule in the list that follows.
1. Cc1nn(Cc2ccc(F)cc2)c(C)c1NC(=O)c1c2c(nc3ccccc13)CCC2
2. CC(=O)c1cccc(Cn2nc(C)c(NC(=O)c3cc(C(N)=O)nc4cc(F)c(Cl)cc34)c2C)c1
3. COc1cc(Cn2nc(C)c(NC(=O)c3cc(C)nc4ccc(C)cc34)c2C)cc(OC)c1
4. COc1ccc(Cn2nc(C(F)(F)F)c(NC(=O)c3cc(OC)nc4ccccc34)c2C)cc1
5. Cc1nn(Cc2ccc(F)cc2)c(C)c1NC(=O)c1cc(C(F)(F)F)nc2cc(F)c(Br)cc12
6. Cc1ccc2nc(C)cc(C(=O)Nc3c(C)nn(Cc4ccccc4)c3C)c2c1

A.
1. 1670
2. 0.8
3. 7790
4. 35.5
5. 2.3
6. 292

Please state IC50 for every molecule in the list that follows.
1. Cc1nn(Cc2ccc(C(=O)NCC3CC3(F)F)cc2)c(C)c1NC(=O)c1cc(C(F)(F)F)nc2ccc(Br)cc12 (centres unmarked)
2. COc1cc(C(=O)Nc2c(C)nn(Cc3ccc(C(F)(F)F)cc3)c2C)c2ccccc2n1

A.
[71.1, 2890]

----------
system: UniProt:P11166
Sequence (P11166 1-492): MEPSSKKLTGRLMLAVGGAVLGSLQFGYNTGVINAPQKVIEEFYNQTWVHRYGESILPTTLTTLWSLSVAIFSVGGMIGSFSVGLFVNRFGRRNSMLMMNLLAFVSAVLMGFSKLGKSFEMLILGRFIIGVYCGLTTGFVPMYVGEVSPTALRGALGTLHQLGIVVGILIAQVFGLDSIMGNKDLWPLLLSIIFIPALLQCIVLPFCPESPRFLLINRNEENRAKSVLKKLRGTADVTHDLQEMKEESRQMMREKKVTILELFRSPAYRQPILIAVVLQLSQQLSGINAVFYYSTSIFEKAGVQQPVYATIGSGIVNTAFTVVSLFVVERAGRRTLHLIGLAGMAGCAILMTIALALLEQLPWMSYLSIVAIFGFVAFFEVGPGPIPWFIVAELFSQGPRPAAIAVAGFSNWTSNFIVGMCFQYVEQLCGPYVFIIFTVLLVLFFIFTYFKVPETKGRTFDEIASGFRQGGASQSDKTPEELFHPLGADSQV
assay.method.text: Indirect measurement of GLUT1 activity by quantification of intracellular ATP levels (glucose induced ATP increase)
Assay type: cell-based
Parameters: endogenous in cells; host or cells: DLD1 or CHO-K1
recorded.conditions: read-out: IC50 regarding glucose induced ATP increase (GLUT1 inhibition)
pIC50: −log10 of the molar value.
Mark Not fulfilled for pIC50 values under 7, and Fulfilled for everything at or above.

Solved cases below.
>  <structure.smiles.string>
Cc1nn(Cc2ccccc2C#N)c(C)c1NC(=O)c1cc(C(N)=O)nc2ccc(Br)cc12

>  <system>
UniProt:P11166

>  <label.value>
Fulfilled

$$$$
>  <structure.smiles.string>
Cc1c(NC(=O)c2cc(C(N)=O)nc3ccc(Cl)cc23)c(C(F)(F)F)nn1Cc1ccc(C#N)cc1

>  <system>
UniProt:P11166

>  <label.value>
Fulfilled

$$$$
>  <structure.smiles.string>
Cc1c(NC(=O)c2cc(C(N)=O)nc3cc(F)ccc23)c(C(F)(F)F)nn1Cc1cccc(C(N)=O)c1

>  <system>
UniProt:P11166

>  <label.value>
Fulfilled

$$$$
>  <structure.smiles.string>
CCc1c(NC(=O)c2cc(C(N)=O)nc3cc(F)ccc23)c(C(F)(F)F)nn1Cc1ccc(C#N)cc1

>  <system>
UniProt:P11166

>  <label.value>
Fulfilled

$$$$
>  <structure.smiles.string>
Cc1nn(Cc2ccc(CC(=O)NCc3ccccc3)cc2)c(C)c1NC(=O)c1cc(C(F)(F)F)nc2ccc(Br)cc12

>  <system>
UniProt:P11166

>  <label.value>
Not fulfilled

$$$$
>  <structure.smiles.string>
COc1cc(C(=O)Nc2c(C)nn(Cc3ccc(F)c(F)c3)c2C)c2ccccc2n1

>  <system>
UniProt:P11166

>  <label.value>
Fulfilled

$$$$
>  <structure.smiles.string>
Cc1c(NC(=O)c2cc(C(N)=O)nc3ccccc23)c(C(F)(F)F)nn1Cc1ccc(C#N)cn1

>  <system>
UniProt:P11166

>  <label.value>
Fulfilled

$$$$
>  <structure.smiles.string>
COc1ccc(CCCn2nc(C)c(NC(=O)c3cc(OC)nc4ccccc34)c2C)cc1

>  <system>
UniProt:P11166

>  <label.value>
Fulfilled

$$$$

Q. Does the compound Cc1c(NC(=O)c2cc(C(F)(F)F)nc3ccc(Br)cc23)c(C(F)(F)F)nn1Cc1ccc(C(=O)N(C)C)cn1 have recorded pIC50 that is 7 or more?
A. Not fulfilled

Q. Next: COc1cc(C(=O)Nc2c(C)nn(Cc3cccc(C#N)c3)c2C)c2ccccc2n1
A. Not fulfilled

Q. Next: COc1cc(C(=O)Nc2c(C)nn(Cc3ccc(C#N)cc3)c2C)c2ccccc2n1
A. Fulfilled

Q. Next: Cc1c(NC(=O)c2cc(C(N)=O)nc3cc(F)ccc23)c(C(C)C)nn1Cc1ccc(C#N)cc1
A. Fulfilled
